tested on: MOLT-4 leukemia; experiment: NCI-60 one-dose screen, 48 h; details: 10 µM unless noted
This is part of a sample that, as a whole, favours compounds with a hit. Of some 83,000 tested, about 20% had one in any assay. Active and inactive are the calls of the source. How the source made its calls: active means growth percent below 10; inactive means the rest.
Write down one outcome, taken from true = active, false = inactive

Answered examples (5):
Cn1c2c(cc(S(=O)(=O)c3ccccc3)c1=O)CCc1c-2cnn1-c1ccc(Cl)cc1: false
O=C(/C=C1\C(=O)N(Cc2ccc([N+](=O)[O-])cc2)c2ccccc21)c1ccc(OCCN2CCCCC2)cc1: true
CCOC(=O)c1csc(-c2ccc(COC(=O)c3ccccc3)o2)n1: true
C=CCC(CCC(CC=C)C(=O)OCC)C(=O)OCC (stereo unspecified): false
O=C1/C(=C\c2cn(-c3nc(N4CCOCC4)nc(N4CCOCC4)n3)c3ccccc23)c2ccccc2N1c1c(Cl)cccc1Cl: false

Challenge: Given COc1ccc(NC(=O)/C=C(C)/C=C/C=C(C)/C=C/C2=C(C)CCCC2(C)C)cc1 , state the outcome it received in this test.
Response given: false

Challenge: Given CCN(CC)C(=O)C1(C)CCCC2(C)c3cc(OC(C)=O)ccc3CCC12 (stereo unspecified) , state the outcome it received in this test.
Response given: false

Challenge: Given O=C(/C=C/c1cccc(O)c1)c1cccc(-n2cc(-c3ccc(Cl)cc3)[nH]c2=O)c1 , state the outcome it received in this test.
Response given: true

Challenge: Given CC#Cc1nc(Nc2cc(C)[nH]n2)c2ccccc2n1 , state the outcome it received in this test.
Response given: true

Challenge: Given O=C(Nc1ccc(-n2cc(-c3ccncc3)c(-c3ccc(Cl)c(O)c3)n2)cc1)c1cc(C(F)(F)F)cc(C(F)(F)F)c1 , state the outcome it received in this test.
Response given: false

###

system: SF-268 CNS; test: NCI-60 one-dose screen, 48 h (100 = growth as untreated, 0 = no growth, -100 = all killed); settings: 10 µM unless noted
About 83,000 compounds went through this panel and 20% of them were active in at least one assay; those are over-represented in the sample as a whole.
Tick condition met if growth is 70% or greater. Tick condition not met if growth is less than 70%.

C/C=C(/C)C(=O)OC1C=C(CO)C(=O)C(OC(=O)C(C)(O)C(C)Cl)C1C(C)C (configuration not stated): condition not met
CCCNC(=O)Oc1ccc(/C(=C(/C)Cc2ccc(OC)cc2)c2ccc(OCCN3CCCC3)cc2)cc1: condition met

Here's the next entry for you.
Challenge: Form field: growth at least 70%? Entry: COc1ccc(C(=O)c2no[n+]([O-])c2C(=O)c2ccc(OC)cc2)cc1
Response given: condition not met

###

tested on: UO-31 renal; assay: NCI-60 one-dose screen, 48 h (100 = growth as untreated, 0 = no growth, -100 = all killed); conditions: 10 µM unless noted
Compounds without any hit were thinned out: in the full panel of roughly 83,000, 20% have a hit.
Let's look at some molecules and their measured growth.
Write the number in % without appending the unit.

COC1=CC(c2ccc[nH]2)=N/C1=C\c1[nH]c(C)c(C(=O)CCCCC(=O)NC(C)(C)C)c1C: 18

Challenge: Indicate the recorded growth value for this molecule: Cc1ccccc1-n1c(C)nc2cc(NC(=O)c3ccc(Cl)cc3)ccc2c1=O
Response given: 77.8

Challenge: Indicate the recorded growth value for this molecule: N#Cc1c2cccnc2c2nnc3cc(Cl)c(Cl)cc3n12
Response given: 30.8

Challenge: Indicate the recorded growth value for this molecule: COc1cc2ncnc(-n3ncc4cc(NC(=O)Nc5ccc(Cl)c(Cl)c5)ccc43)c2cc1OC
Response given: -17.2

Challenge: Indicate the recorded growth value for this molecule: CCC(CCCN1C(=O)c2ccccc2C1=O)Nc1cc(OC)cc2cccnc12 (stereo unspecified)
Response given: 94.8

Challenge: Indicate the recorded growth value for this molecule: N#Cc1c2ncccc2c2nnc3cc(Cl)c(Cl)cc3n12
Response given: 76.3

Challenge: Indicate the recorded growth value for this molecule: CNc1nc2ncn(C)c2c(=O)[nH]1
Response given: 83.3

Challenge: Indicate the recorded growth value for this molecule: Cc1ncc(C(=O)Nc2ccc(CN3CCN(C)CC3)c(C(F)(F)F)c2)cc1C#Cc1c(N)ncc2ccc(F)cc12
Response given: 6.12

Challenge: Indicate the recorded growth value for this molecule: C=CN(C)S(C)(=O)=O
Response given: 18.2

Challenge: Indicate the recorded growth value for this molecule: CCCCCCCCCCCCc1ccc([N+](CC)(CC)CC)cc1
Response given: 78.7

Challenge: Indicate the recorded growth value for this molecule: COc1cc(NC(=O)CSc2nc3ccc(Cl)cc3c(=O)n2-c2ccc(F)cc2)cc(OC)c1OC
Response given: 40.6
